tested on: iAstro (astrocyte control); assay: area under dose-response curve of % growth inhibition (log2 RLU vs DMSO / staurosporine), 1e-11 to 1e-4 M (% x log10 M); higher = more growth inhibition
endpoint: area under dose-response curve
Respond with the number and no other words.

Can you look up the measured area under dose-response curve of O=C1NC(=O)C(c2cnc3ccccn23)=C1c1cn2c3c(cc(F)cc13)CN(C(=O)N1CCCCC1)CC2 for me?
66.3

Can you look up the measured area under dose-response curve of COc1cc(F)ccc1-c1ncnc(Nc2cccc(CS(C)(=N)=O)c2)n1 (stereo not drawn) for me?
57.6

Can you look up the measured area under dose-response curve of Fc1ccc(-c2c3cccc(C(F)(F)F)c3nn2Cc2ccc(F)cc2Cl)cc1 for me?
38.3

Can you look up the measured area under dose-response curve of Cc1c(C2CCN(CCc3ccccc3)CC2)noc1-c1ccc(Cl)cc1 [L-741,742] for me?
41.1

Can you look up the measured area under dose-response curve of CC12CC3CC(C)(C1)CC(N)(C3)C2 [MEMANTINE] for me?
0.365

Can you look up the measured area under dose-response curve of Cc1ccc2nc(NCCN)c3ncc(C)n3c2c1 for me?
35.1

Can you look up the measured area under dose-response curve of O=C(Nc1ccccc1-c1cn2c(CN3CCNCC3)csc2n1)c1cnc2ccccc2n1 [SRT1720] for me?
131

Can you look up the measured area under dose-response curve of CC(C)c1cc(-c2n[nH]c(=O)n2-c2ccc3c(ccn3C)c2)c(O)cc1O [GANETESPIB] for me?
164

Can you look up the measured area under dose-response curve of CC(C)C[C@H](NC(=O)CNC(=O)c1cc(Cl)ccc1Cl)B(O)O [IXAZOMIB] for me?
264

Can you look up the measured area under dose-response curve of CCOC(=O)CCNc1cc(N2CCc3ccccc3CC2)nc(-c2ccccn2)n1 [GSK-J4] for me?
97.7

Can you look up the measured area under dose-response curve of CC(=O)c1ccc2c(c1)c1cc(C(C)=O)ccc1n2CCNC(C)C [CBL-0137] for me?
57.3

Can you look up the measured area under dose-response curve of CC(=O)OC[C@H]1O[C@@H]([S-])[C@H](OC(C)=O)[C@@H](OC(C)=O)[C@@H]1OC(C)=O.CCP(CC)CC.[Au+] [AURANOFIN] for me?
196

Can you look up the measured area under dose-response curve of O=C(c1ccccc1)c1ccc2nc(NC(=O)c3csc(C4CCN(c5ncnc6ccsc56)CC4)n3)[nH]c2c1 for me?
88.4

Can you look up the measured area under dose-response curve of COC1=CC(c2cc3ccccc3[nH]2)=N/C1=C\c1[nH]c(C)cc1C [OBATOCLAX] for me?
141

Can you look up the measured area under dose-response curve of Nc1ccccc1NC(=O)c1ccc(CNc2nccc(-c3cccnc3)n2)cc1 [MOCETINOSTAT] for me?
70.7

Can you look up the measured area under dose-response curve of CC(C)C[C@H](NC(=O)[C@H](Cc1ccccc1)NC(=O)c1cnccn1)B(O)O [BORTEZOMIB] for me?
461

Can you look up the measured area under dose-response curve of CC[C@@]1(O)C(=O)OCc2c1cc1n(c2=O)Cc2cc3c(CN(C)C)c(O)ccc3nc2-1 [TOPOTECAN] for me?
134

Can you look up the measured area under dose-response curve of CCN(CC)CCNC(=O)c1c(C)[nH]c(/C=C2\C(=O)Nc3ccc(F)cc32)c1C [SUNITINIB] for me?
113
